The measured values listed here are drawn from patent US20230391845A1.

study target: T1, human glucose-dependent insulinotropic polypeptide receptor (human, UniProt P48546 22-466)
T1 sequence (looked up): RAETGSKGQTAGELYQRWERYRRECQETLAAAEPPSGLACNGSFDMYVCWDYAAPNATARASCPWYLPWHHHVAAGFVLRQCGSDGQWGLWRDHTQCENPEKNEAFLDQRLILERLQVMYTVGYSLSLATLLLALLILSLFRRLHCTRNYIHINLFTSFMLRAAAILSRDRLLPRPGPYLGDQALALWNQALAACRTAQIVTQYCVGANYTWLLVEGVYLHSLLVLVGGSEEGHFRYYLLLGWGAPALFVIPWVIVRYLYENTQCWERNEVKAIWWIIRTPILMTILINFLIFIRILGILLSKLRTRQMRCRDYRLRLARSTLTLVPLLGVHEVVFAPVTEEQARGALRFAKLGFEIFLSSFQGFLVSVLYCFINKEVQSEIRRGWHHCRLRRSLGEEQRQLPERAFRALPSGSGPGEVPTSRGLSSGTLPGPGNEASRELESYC
method summary: cell-based or functional assay
Where no end group is shown, it is not given here. [ ]: non-standard residue; d: D form. Aib = CC(C)(N)C(=O)O
Please use Criterion met for hGIPR CRE Luc EC50 (pM) under 6 pM and Criterion not met for everything else, ties included.

Solved entries (count: 4):
| binder | class name |
| --- | --- |
| H[Aib]HGTFTSDYSYLLEKQAA[Aib]EFVQWLLEGGPSSGAPPPS-NH2 (not fully specified (residue 16); printed as H-Aib-HGTFTSDYSYLLE-K[(2S)-2-amino-6-[[(2S)-2-amino-6-[[(4S)-4-carboxy-4-(19-carboxynonadecanoylamino)butanoyl]amino]hexanoyl]amino]hexanoyl]-QAA-Aib-EFVQWLLEGGPSSGAPPPS-NH2) [Compound No. 42] | Criterion met |
| Y[Aib]QGTFTSDYSIYLDKQAA[Aib]EFVNWLLAGGPSSGAPPPS-NH2 (not fully specified (residue 16); printed as Y-Aib-QGTFTSDYSIYLD-K[2-[2-[2-[2-[2-[2-[[[(4S)-4-carboxy-4-(19-carboxynonadecanoylamino) butanoyl]amino]ethoxy]ethoxy]acetyl]amino]ethoxy]ethoxy]acetyl]-QAA-Aib-EFVNWLLAGGPSSGAPPPS-NH2) [Compound No. 5] | Criterion not met |
| H[Aib]HGTFTSDYSIYLEKKYA[Aib]EFVQWLLEGGPSSGAPPPS-NH2 (not fully specified (residue 16); printed as H-Aib-HGTFTSDYSIYLE-K[2-[2-[2-[[2-[2-[2-[[(4S)-4-carboxy-4-(19-carboxynonadecanoylamino)butanoyl]amino]ethoxy]ethoxy]acetyl]amino]ethoxy]ethoxy]acetyl]-KYA-Aib-EFVQWLLEGGPSSGAPPPS-NH2) [Compound No. 39] | Criterion not met |
| H[Aib]HGTFTSDYSYYLEKQAA[Aib]EFVQWLLEGGPSSGAPPPS-NH2 (not fully specified (residue 16); printed as H-Aib-HGTFTSDYSYYLE-K[2-[2-[2-[[2-[2-[2-[[(4S)-4-carboxy-4-(19-carboxynonadecanoylamino)butanoyl]amino]ethoxy]ethoxy]acetyl]amino]ethoxy]ethoxy]acetyl]-QAA-Aib-EFVQWLLEGGPSSGAPPPS-NH2) [Compound No. 40] | Criterion met |

Req: Regarding Y[Aib]QGTFTSDYSIYLEKQAA[Aib]EFVNWLLAGGPSSGAPPPS-NH2 (not fully specified (residue 16); printed as Y-Aib-QGTFTSDYSIYLE-K[2-[2-[2-[[2-[2-[2-[[(4S)-4-carboxy-4-[[4-[(19-carboxynonadecanoylamino)methyl]cyclohexanecarbonyl]amino]butanoyl]amino]ethoxy]ethoxy]acetyl]amino]ethoxy]ethoxy]acetyl]-QAA-Aib-EFVNWLLAGGPSSGAPPPS-NH2) [Compound No. 12] , kindly confirm whether its hGIPR CRE Luc EC50 (pM) is beneath 6 pM.
Resp: Criterion met
